Source of measurements: patent US7118895B2

tested on: Crude diglycosidase; experiment: Examination of pH in the conversion into isoflavone aglycons by diglycosidase using soybean materials; assay type: biochemical, Penicillium multicolor IAM7153; conditions: pH8.6; heat treatment of enzyme: no; reaction time 1 h
Reported values of Decomposition efficiency of daidzin family in concentrated soybean protein for individual entries

Some solved cases for reference:
>>> observed_measurement("O=c1c(-c2ccc(O)cc2)coc2cc(O[C@@H]3O[C@H](CO)[C@@H](O)[C@H](O)[C@H]3O)ccc12 [daidzin]")
"50.8%"
>>> observed_measurement("CC(=O)OC[C@H]1O[C@@H](Oc2ccc3c(=O)c(-c4ccc(O)cc4)coc3c2)[C@H](O)[C@@H](O)[C@@H]1O [acetyldaidzin, 6″-O-acetyldaidzin]")
"39.2%"

# get_value(readout='Decomposition efficiency of daidzin family in concentrated soybean protein', item= O=c1c(-c2ccc(O)cc2)coc2cc(O)ccc12 [daidzein] )
9.9%

---

test system: Crude diglycosidase; assay: Examination of pH in the conversion into isoflavone aglycons by diglycosidase using soybean materials; type: biochemical, Penicillium multicolor IAM7153; settings: pH2.3, heat treatment of enzyme no, reaction time 6 h, 55° C.
ENDPOINT: Decomposition efficiency of glycitin family in soymilk

>>> observed_measurement("COc1cc2c(=O)c(-c3ccc(O)cc3)coc2cc1O[C@@H]1O[C@H](COC(=O)CC(=O)O)[C@@H](O)[C@H](O)[C@H]1O")
46.5
>>> observed_measurement("COc1cc2c(=O)c(-c3ccc(O)cc3)coc2cc1O[C@@H]1O[C@H](CO)[C@@H](O)[C@H](O)[C@H]1O")
"not detected"
>>> observed_measurement("COc1cc2c(=O)c(-c3ccc(O)cc3)coc2cc1O")
53.5
>>> observed_measurement("COc1cc2c(=O)c(-c3ccc(O)cc3)coc2cc1O[C@@H]1O[C@H](COC(C)=O)[C@@H](O)[C@H](O)[C@H]1O")
"not detected"

---

test system: Crude diglycosidase; assay: Examination of pH in the conversion into isoflavone aglycons by diglycosidase using soybean materials; format: biochemical, Penicillium multicolor IAM7153; conditions: pH2.3; heat treatment of enzyme: yes; reaction time 6 h
Reported values of Decomposition efficiency of daidzin family in soymilk for individual entries

Some solved cases for reference:
>>> observed_measurement("O=C(O)CC(=O)OC[C@H]1O[C@@H](Oc2ccc3c(=O)c(-c4ccc(O)cc4)coc3c2)[C@H](O)[C@@H](O)[C@@H]1O")
"51.0%"
>>> observed_measurement("O=c1c(-c2ccc(O)cc2)coc2cc(O[C@@H]3O[C@H](CO)[C@@H](O)[C@H](O)[C@H]3O)ccc12")
"38.8%"

Attention now turns to another entry.
Give Decomposition efficiency of daidzin family in soymilk (Crude diglycosidase) of the following compound: O=c1c(-c2ccc(O)cc2)coc2cc(O)ccc12
10.2%

---

tested on: Diglycosidase derived from A. fumigatus; assay: Reactivity toward various isoflavone glycosides (HPLC); assay type: biochemical, Aspergillus fumigatus; design: unit not given here; conditions: Reaction time 0 h; 55 °C, pH 4.0
ENDPOINT: glucoside
// no unit, no text: just the number

Some solved cases for reference:
>>> observed_measurement("O=c1c(-c2ccc(O)cc2)coc2cc(O[C@@H]3O[C@H](CO)[C@@H](O)[C@H](O)[C@H]3O)cc(O)c12")
100
>>> observed_measurement("O=c1c(-c2ccc(O)cc2)coc2cc(O[C@@H]3O[C@H](CO)[C@@H](O)[C@H](O)[C@H]3O)ccc12")
99.1
>>> observed_measurement("O=C(O)CC(=O)OC[C@H]1O[C@@H](Oc2cc(O)c3c(=O)c(-c4ccc(O)cc4)coc3c2)[C@H](O)[C@@H](O)[C@@H]1O")
100

# get_value(readout='glucoside', item= COc1cc2c(=O)c(-c3ccc(O)cc3)coc2cc1O[C@@H]1O[C@H](COC(=O)CC(=O)O)[C@@H](O)[C@H](O)[C@H]1O )
100

Do the same for COc1cc2c(=O)c(-c3ccc(O)cc3)coc2cc1O[C@@H]1O[C@H](CO)[C@@H](O)[C@H](O)[C@H]1O please
100

Do the same for CC(=O)OC[C@H]1O[C@@H](Oc2ccc3c(=O)c(-c4ccc(O)cc4)coc3c2)[C@H](O)[C@@H](O)[C@@H]1O please
100

Do the same for CC(=O)OC[C@H]1O[C@@H](Oc2cc(O)c3c(=O)c(-c4ccc(O)cc4)coc3c2)[C@H](O)[C@@H](O)[C@@H]1O please
100

Do the same for O=C(O)CC(=O)OC[C@H]1O[C@@H](Oc2ccc3c(=O)c(-c4ccc(O)cc4)coc3c2)[C@H](O)[C@@H](O)[C@@H]1O please
100

Do the same for COc1cc2c(=O)c(-c3ccc(O)cc3)coc2cc1O[C@@H]1O[C@H](COC(C)=O)[C@@H](O)[C@H](O)[C@H]1O please
100

---

system: Crude diglycosidase; assay: Examination of substrate concentration in the conversion into isoflavone aglycons by diglycosidase using soybean materials; type: biochemical, Penicillium multicolor IAM7153; conditions: roasted soy flour, substrate concentration 20%, heat treatment of enzyme no, reaction time 0 h;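 also: percent of the isoflavone family total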
ENDPOINT: Decomposition efficiency: ratio of each glycoside/aglycon within its isoflavone family

>>> observed_measurement("COc1cc2c(=O)c(-c3ccc(O)cc3)coc2cc1O[C@@H]1O[C@H](COC(C)=O)[C@@H](O)[C@H](O)[C@H]1O")
"31.8%"
>>> observed_measurement("COc1cc2c(=O)c(-c3ccc(O)cc3)coc2cc1O[C@@H]1O[C@H](COC(=O)CC(=O)O)[C@@H](O)[C@H](O)[C@H]1O")
"not detected"
>>> observed_measurement("COc1cc2c(=O)c(-c3ccc(O)cc3)coc2cc1O[C@@H]1O[C@H](CO)[C@@H](O)[C@H](O)[C@H]1O")
"59.6%"
>>> observed_measurement("O=C(O)CC(=O)OC[C@H]1O[C@@H](Oc2ccc3c(=O)c(-c4ccc(O)cc4)coc3c2)[C@H](O)[C@@H](O)[C@@H]1O")
"not detected"

---

test system: Crude diglycosidase; assay: Examination of pH in the conversion into isoflavone aglycons by diglycosidase using soybean materials; assay type: biochemical, Penicillium multicolor IAM7153; conditions: pH6.6; heat treatment of enzyme: no; reaction time 1 h
Reported values of Decomposition efficiency of glycitin family in concentrated soybean protein for individual entries
Quick reminder: number only, in %, skip the unit.

Some solved cases for reference:
>>> observed_measurement("COc1cc2c(=O)c(-c3ccc(O)cc3)coc2cc1O[C@@H]1O[C@H](CO)[C@@H](O)[C@H](O)[C@H]1O [glycitin]")
22.6
>>> observed_measurement("COc1cc2c(=O)c(-c3ccc(O)cc3)coc2cc1O[C@@H]1O[C@H](COC(C)=O)[C@@H](O)[C@H](O)[C@H]1O [acetylglycitin, 6″-O-acetylglycitin]")
34.8
>>> observed_measurement("COc1cc2c(=O)c(-c3ccc(O)cc3)coc2cc1O[C@@H]1O[C@H](COC(=O)CC(=O)O)[C@@H](O)[C@H](O)[C@H]1O [malonylglycitin, 6″-O-malonylglycitin]")
0.4

# get_value(readout='Decomposition efficiency of glycitin family in concentrated soybean protein', item= COc1cc2c(=O)c(-c3ccc(O)cc3)coc2cc1O [glycitein] )
42.2

---

Reported values of Decomposition efficiency of glycitin family in soymilk for individual entries
system: Crude diglycosidase; experiment: Examination of pH in the conversion into isoflavone aglycons by diglycosidase using soybean materials; assay type: biochemical, Penicillium multicolor IAM7153; details: pH3.5, heat treatment of enzyme yes, reaction time 6 h, 55° C.
// no unit, no text: just the number

Some solved cases for reference:
>>> observed_measurement("COc1cc2c(=O)c(-c3ccc(O)cc3)coc2cc1O")
7.6
>>> observed_measurement("COc1cc2c(=O)c(-c3ccc(O)cc3)coc2cc1O[C@@H]1O[C@H](CO)[C@@H](O)[C@H](O)[C@H]1O")
54.2

Attention now turns to another entry.
# get_value(readout='Decomposition efficiency of glycitin family in soymilk', item= COc1cc2c(=O)c(-c3ccc(O)cc3)coc2cc1O[C@@H]1O[C@H](COC(=O)CC(=O)O)[C@@H](O)[C@H](O)[C@H]1O )
38.2

---

test system: Diglycosidase derived from P. multicolor; assay: Reactivity toward various isoflavone glycosides (HPLC); type: biochemical, Penicillium multicolor; set-up: unit not given here; conditions: Reaction time 6 h; 55 °C, pH 4.0
ENDPOINT: glucoside
// no unit, no text: just the number

>>> observed_measurement("O=C(O)CC(=O)OC[C@H]1O[C@@H](Oc2cc(O)c3c(=O)c(-c4ccc(O)cc4)coc3c2)[C@H](O)[C@@H](O)[C@@H]1O")
17.7
>>> observed_measurement("COc1cc2c(=O)c(-c3ccc(O)cc3)coc2cc1O[C@@H]1O[C@H](COC(=O)CC(=O)O)[C@@H](O)[C@H](O)[C@H]1O")
14
>>> observed_measurement("CC(=O)OC[C@H]1O[C@@H](Oc2cc(O)c3c(=O)c(-c4ccc(O)cc4)coc3c2)[C@H](O)[C@@H](O)[C@@H]1O")
0.2
>>> observed_measurement("COc1cc2c(=O)c(-c3ccc(O)cc3)coc2cc1O[C@@H]1O[C@H](CO)[C@@H](O)[C@H](O)[C@H]1O")
0.3
>>> observed_measurement("O=c1c(-c2ccc(O)cc2)coc2cc(O[C@@H]3O[C@H](CO)[C@@H](O)[C@H](O)[C@H]3O)ccc12")
11.5

# get_value(readout='glucoside', item= COc1cc2c(=O)c(-c3ccc(O)cc3)coc2cc1O[C@@H]1O[C@H](COC(C)=O)[C@@H](O)[C@H](O)[C@H]1O )
2.5

Do the same for O=C(O)CC(=O)OC[C@H]1O[C@@H](Oc2ccc3c(=O)c(-c4ccc(O)cc4)coc3c2)[C@H](O)[C@@H](O)[C@@H]1O please
38.5

Do the same for CC(=O)OC[C@H]1O[C@@H](Oc2ccc3c(=O)c(-c4ccc(O)cc4)coc3c2)[C@H](O)[C@@H](O)[C@@H]1O please
3.8

Do the same for O=c1c(-c2ccc(O)cc2)coc2cc(O[C@@H]3O[C@H](CO)[C@@H](O)[C@H](O)[C@H]3O)cc(O)c12 please
100
